tested on: RXF 393; assay: Growth inhibition of human RXF393 cells at 10 uM after 48 hrs by sulforhodamine B assay; type: functional; details: RXF 393, 48 h, read-out: GI
measurement_label: inhibition of growth at 10 µM (%)
# value in %; strip the unit string

Give recorded inhibition of growth at 10 µM with RXF 393 for the following molecule: "O=C(c1cc2cc(F)ccc2[nH]1)N1c2ccccc2Sc2ccccc21"
7.7

Give recorded inhibition of growth at 10 µM with RXF 393 for the following molecule: "CC(=O)c1cn(C(=O)N2c3ccccc3Sc3ccccc32)c2ccccc12"
7

Give recorded inhibition of growth at 10 µM with RXF 393 for the following molecule: "O=C(c1cnc2ccccn12)N1c2ccccc2Sc2ccccc21"
0
